Test: DNDI: Cytotoxicity against L-6 rat myoblasts from skeletal muscle cells
Conditions: L6 rat skeletal muscle myoblast cells, IC50
# reported IC50; entries follow
Only the number, expressed in µM, is required.

Check out these entries, answers already filled in.
[[record]]
compound = "Clc1ccc(C(NC2CCN(c3ccc(Br)cn3)CC2)c2cccnc2)cc1 (stereo unspecified)"
value_units = "µM"
reported = 61.8

[[record]]
compound = "O=C(Nc1ccccc1)N1CCC(NC(c2ccc(Cl)cc2)c2cccnc2)CC1 (stereo unspecified)"
value_units = "µM"
reported = 63.7

[[record]]
compound = "Fc1cc(Cl)ccc1C(NC1CCN(c2ccc(OC(F)(F)F)cc2)CC1)c1cccnc1 (stereo unspecified)"
value_units = "µM"
reported = 48


Request: Tell us which IC50 value is on record for FC(F)(F)c1ccc(C(NC2CCN(c3ncccn3)CC2)c2cncs2)cc1 (stereo unspecified)
Result: 76.7

* * *

Measured IC50 values are reported for all entries that follow.
Experiment: DNDI: Cytotoxicity against L-6 rat myoblasts from skeletal muscle cells
Conditions: L6 rat skeletal muscle myoblast cells, IC50

// known answers, use as guide
[[record]]
compound = "FC(F)(F)c1ccc(C(NC2CCN(c3ncccn3)CC2)c2cscn2)cc1 (configuration not stated)"
reported = "88.1 µM"

[[record]]
compound = "CC(C)C(=O)N1CCC(NC(c2cnccn2)c2ccc(F)cc2F)CC1 (configuration not stated)"
reported = "> 100 µM"

[[record]]
compound = "CC(C)C(=O)NC1CCN(C(c2ccc(C(F)(F)F)cc2)c2cnccn2)CC1 (configuration not stated)"
reported = "> 100 µM"

[[record]]
compound = "Cc1n[nH]c(C)c1C(=O)N1CCC(NC(c2ccc(C(F)(F)F)cc2)c2cccnc2)CC1 (configuration not stated)"
reported = "> 100 µM"

[[record]]
compound = "CC(C)(C)OC(=O)N1CCC(NC(c2cnccn2)c2ccc(F)cc2F)CC1 (configuration not stated)"
reported = "> 100 µM"

[[record]]
compound = "CN(C)C(=O)N1CCN(C(c2cncnc2)c2ccc(Cl)cc2F)CC1 (configuration not stated)"
reported = "> 100 µM"


Request: Name the recorded IC50 of the compound listed here: CS(=O)(=O)N1CCC(NC(c2ccc(C(F)(F)F)cc2)c2cnccn2)CC1 (configuration not stated)
Result: > 100 µM

Request: Identify the reported IC50 for the following entry. Cc1nc(C(=O)N2CCC(NC(c3ccc(C(F)(F)F)cc3)c3cccnc3)CC2)cs1 (configuration not stated)
Result: > 100 µM

Request: Determine from records and report IC50 for CC(=O)NC1CCN(C(c2ccc(C(F)(F)F)cc2)c2cnccn2)CC1 (configuration not stated)
Result: > 100 µM

Request: Return reported IC50. Input compound: OC(c1cncnc1)(c1ccccc1F)c1ccccc1Cl (configuration not stated)
Result: > 100 µM

Request: Return the recorded IC50 value; entry: CC(C)(C)OC(=O)NC1CCN(C(c2cncnc2)c2ccc(Cl)cc2F)CC1 (configuration not stated)
Result: > 100 µM

Request: Answer with reported IC50 of O=C(Cc1ccccc1)NC1CCN(C(c2cnccn2)c2ccc(F)cc2F)CC1 (configuration not stated)
Result: > 100 µM

* * *

Experiment: DNDI: Cytotoxicity against L-6 rat myoblasts from skeletal muscle cells
Details: L6 rat skeletal muscle myoblast cells, IC50
We begin with a simple list: items and their reported IC50.
Give the value, in units of µM, as a plain number.

Solved entries:
[[record]]
compound = "N#Cc1ccccc1OC1CCN(C(c2ccc(C(F)(F)F)cc2)c2cccnc2)CC1 (stereo unspecified)"
reported = 57.8

[[record]]
compound = "Fc1cccc(F)c1N1CCC(NC(c2ccc(C(F)(F)F)cc2)c2cccnc2)CC1 (stereo unspecified)"
reported = 54.2

[[record]]
compound = "FC(F)(F)c1ccc(C(c2cccnc2)N2CCC(Oc3ccccc3Cl)CC2)cc1 (stereo unspecified)"
reported = 60.1

[[record]]
compound = "Fc1cc(Cl)ccc1C(NC1CCN(c2ccc(C(F)(F)F)cc2)CC1)c1cccnc1 (stereo unspecified)"
reported = 55.7

[[record]]
compound = "O=C(OCc1ccccc1)N1CCN(C(c2ccc(Cl)cc2)c2cncnc2)CC1 (stereo unspecified)"
reported = 52.1

[[record]]
compound = "O=S(=O)(NC1CCN(C(c2ccc(C(F)(F)F)cc2)c2cnccn2)CC1)c1ccc(C(F)(F)F)cc1 (stereo unspecified)"
reported = 18.1


Request: Identify the reported IC50 for the following entry. COc1ccc(CN2CCC(NC(c3cccnc3)c3ccc(Cl)cc3F)CC2)cc1 (stereo unspecified)
Result: 52

Request: Give the measured IC50 for OC(c1ccc(Cl)cc1)(c1ccc(C(F)(F)F)cc1)c1ccc2ncccc2c1 (stereo unspecified)
Result: 56.3

Request: Return the recorded IC50 value; entry: O=S(=O)(C1CCCCC1)N1CCN(C(c2ccc(Cl)cc2)c2cncnc2)CC1 (stereo unspecified)
Result: 56.3

Request: Give the reported value of IC50 for this record: N#Cc1ccc(C(c2cccnc2)N2CCC(NC(=O)c3ccc(C(F)(F)F)cc3)CC2)cc1 (stereo unspecified)
Result: 65.7

Request: Return IC50 for the following compound: O=C(NC1CCN(C(c2cncnc2)c2ccc(Cl)cc2F)CC1)c1ccc(F)cc1F (stereo unspecified)
Result: 81

Request: For FC(F)(F)c1ccc(C(NC2CCN(c3cncs3)CC2)c2cccnc2)cc1 (stereo unspecified) , write its IC50.
Result: 59.9
